Examples of compounds with documented fold change (FC) follow.
Target: ATP-dependent translocase ABCB1 (Homo sapiens)
Sequence (P08183 whole entry): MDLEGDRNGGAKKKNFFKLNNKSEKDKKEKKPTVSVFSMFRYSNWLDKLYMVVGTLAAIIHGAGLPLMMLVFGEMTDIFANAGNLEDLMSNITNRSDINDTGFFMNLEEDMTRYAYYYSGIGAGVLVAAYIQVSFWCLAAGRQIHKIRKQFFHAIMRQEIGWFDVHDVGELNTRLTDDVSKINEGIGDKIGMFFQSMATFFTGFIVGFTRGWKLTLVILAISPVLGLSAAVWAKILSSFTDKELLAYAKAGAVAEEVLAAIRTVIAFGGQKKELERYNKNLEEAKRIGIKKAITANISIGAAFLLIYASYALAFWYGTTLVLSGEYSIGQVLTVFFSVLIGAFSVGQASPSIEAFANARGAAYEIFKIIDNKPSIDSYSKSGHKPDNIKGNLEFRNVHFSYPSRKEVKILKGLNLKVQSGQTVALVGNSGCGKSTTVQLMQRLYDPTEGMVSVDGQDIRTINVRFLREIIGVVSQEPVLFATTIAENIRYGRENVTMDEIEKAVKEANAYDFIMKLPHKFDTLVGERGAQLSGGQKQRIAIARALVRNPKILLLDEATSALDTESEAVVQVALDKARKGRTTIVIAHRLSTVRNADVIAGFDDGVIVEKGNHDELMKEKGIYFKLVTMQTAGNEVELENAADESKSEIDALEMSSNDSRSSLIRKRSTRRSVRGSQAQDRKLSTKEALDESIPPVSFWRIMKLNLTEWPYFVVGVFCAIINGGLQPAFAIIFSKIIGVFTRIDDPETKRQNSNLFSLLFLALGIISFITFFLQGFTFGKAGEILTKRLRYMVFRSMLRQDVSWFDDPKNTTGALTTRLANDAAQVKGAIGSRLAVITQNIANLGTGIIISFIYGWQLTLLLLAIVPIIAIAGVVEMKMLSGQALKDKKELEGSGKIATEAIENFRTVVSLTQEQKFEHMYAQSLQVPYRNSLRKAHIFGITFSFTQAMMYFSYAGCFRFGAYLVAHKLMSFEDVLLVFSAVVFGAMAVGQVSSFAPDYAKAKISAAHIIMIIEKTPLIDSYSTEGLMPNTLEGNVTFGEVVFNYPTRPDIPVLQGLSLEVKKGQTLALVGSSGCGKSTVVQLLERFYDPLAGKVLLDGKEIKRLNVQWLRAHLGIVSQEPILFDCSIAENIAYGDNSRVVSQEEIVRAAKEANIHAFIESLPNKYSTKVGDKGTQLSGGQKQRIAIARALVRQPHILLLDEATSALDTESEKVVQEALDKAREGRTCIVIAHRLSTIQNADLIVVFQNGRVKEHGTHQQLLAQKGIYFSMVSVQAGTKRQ
Assay: Inhibition of P-gp-mediated multidrug resistance in doxorubicin-resistant human MCF7/ADR cells assessed as fold reversal of resistance by measuring doxorubicin IC50 incubated for 48 hrs by CCK-8 assay relative to doxorubicin IC50 in absence of compound
Type: cell-based
Conditions: nci-adr-res

{"columns": ["SMILES_NOTATION", "ASSAY_SYSTEM", "fold change (FC)"],
 "data": [
  ["COc1cc2c(cc1OC)CN(C(=O)c1cc3cc(-c4ccc(Cl)cc4)ccc3[nH]1)CC2", "ATP-dependent translocase ABCB1 (Homo sapiens)", 100.4],
  ["COc1cc2c(cc1OC)CN(C(=O)c1cc3cc(-c4ccc(NC(=O)c5ccc(Oc6ccccc6)cc5)cc4)ccc3[nH]1)CC2", "ATP-dependent translocase ABCB1 (Homo sapiens)", 23],
  ["COc1cc(OC)cc(-c2ccc3[nH]c(C(=O)N4CCc5cc(OC)c(OC)cc5C4)cc3c2)c1", "ATP-dependent translocase ABCB1 (Homo sapiens)", 86.4],
  ["COc1cc2c(cc1OC)CN(C(=O)c1cc3cc(-c4ccc(NC(=O)c5ccc(F)cc5)cc4)ccc3[nH]1)CC2", "ATP-dependent translocase ABCB1 (Homo sapiens)", 3628.7],
  ["COc1cc2c(cc1OC)CN(C(=O)c1cc3cc(-c4ccccc4Cl)ccc3[nH]1)CC2", "ATP-dependent translocase ABCB1 (Homo sapiens)", 52.8],
  ["COc1cc2c(cc1OC)CN(C(=O)c1cc3cc(-c4ccc(NC(=O)c5ccc(Cl)cc5)cc4)ccc3n1Cc1cc(C(F)(F)F)cc(C(F)(F)F)c1)CC2", "ATP-dependent translocase ABCB1 (Homo sapiens)", 40.9],
  ["COc1cc2c(cc1OC)CN(C(=O)c1cc3cc(-c4ccc(NC(=O)c5ccc(Cl)cc5)cc4)ccc3n1Cc1ccc(OC(F)(F)F)cc1)CC2", "ATP-dependent translocase ABCB1 (Homo sapiens)", 29.2],
  ["COc1ccc(-c2ccc3[nH]c(C(=O)N4CCc5cc(OC)c(OC)cc5C4)cc3c2)cc1OC", "ATP-dependent translocase ABCB1 (Homo sapiens)", 56.2]
]}

###

Tested on: MCF7
Experiment: Cytotoxicity against human MCF7 cells assessed as inhibition rate at 5 uM measured after […] hrs by CCK-8 assay relative to control
Format: functional
Response key: 1 (yes) means inhibition at 5 µM >= 8%; 0 (no) means inhibition at 5 µM < 8%.

{"columns": ["COMPOUND", "ASSIGNED_CATEGORY"],
 "data": [
  ["COc1cc2c(cc1OC)CN(C(=O)c1cc3cc(-c4ccc(NC(=O)c5ccc(Cl)cc5)cc4)ccc3n1Cc1ccccc1Br)CC2", "1 (yes)"],
  ["COc1cc2c(cc1OC)CN(C(=O)c1cc3cc(-c4ccc(NC(=O)c5ccc(Cl)cc5)cc4)ccc3n1Cc1ccc(OC(F)(F)F)cc1)CC2", "0 (no)"],
  ["COc1cc2c(cc1OC)CN(C(=O)c1cc3cc(-c4ccc(NC(=O)c5cccc(F)c5)cc4)ccc3[nH]1)CC2", "1 (yes)"],
  ["COc1cc2c(cc1OC)CN(C(=O)c1cc3cc(-c4ccc(NC(=O)c5ccc(Cl)cc5)cc4)ccc3n1Cc1ccc(C)cc1)CC2", "0 (no)"],
  ["COc1cc2c(cc1OC)CN(C(=O)c1cc3cc(-c4ccc(NC(=O)c5ccc(C#N)cc5)cc4)ccc3[nH]1)CC2", "1 (yes)"],
  ["COc1cc2c(cc1OC)CN(C(=O)c1cc3cc(-c4ccc(NC(=O)c5cccc(Cl)c5)cc4)ccc3[nH]1)CC2", "1 (yes)"],
  ["COc1cc2c(cc1OC)CN(C(=O)c1cc3cc(-c4ccc(NC(=O)c5ccc(Oc6ccccc6)cc5)cc4)ccc3[nH]1)CC2", "1 (yes)"],
  ["COc1cc2c(cc1OC)CN(C(=O)c1cc3cc(-c4ccc(NC(=O)c5ccc(Cl)cc5)cc4)ccc3n1Cc1ccccc1F)CC2", "0 (no)"],
  ["COc1cc2c(cc1OC)CN(C(=O)c1cc3cc(-c4ccc(NC(=O)c5ccccc5OC)cc4)ccc3[nH]1)CC2", "1 (yes)"],
  ["COc1cc2c(cc1OC)CN(C(=O)c1cc3cc(-c4ccc(NC(=O)c5ccc(Cl)cc5)cc4)ccc3n1Cc1ccccc1)CC2", "1 (yes)"],
  ["COc1cc2c(cc1OC)CN(C(=O)c1cc3cc(-c4ccc(NC(=O)c5ccc(Cl)cc5)cc4)ccc3n1Cc1ccc(Cl)cc1)CC2", "0 (no)"],
  ["COc1cc2c(cc1OC)CN(C(=O)c1cc3cc(-c4ccc(NC(=O)c5ccccc5Cl)cc4)ccc3[nH]1)CC2", "1 (yes)"],
  ["COc1cc2c(cc1OC)CN(C(=O)c1cc3cc(-c4ccc(NC(=O)c5ccc(F)cc5)cc4)ccc3[nH]1)CC2", "1 (yes)"],
  ["COc1ccc(C(=O)Nc2ccc(-c3ccc4[nH]c(C(=O)N5CCc6cc(OC)c(OC)cc6C5)cc4c3)cc2)cc1OC", "1 (yes)"],
  ["COc1cc2c(cc1OC)CN(C(=O)c1cc3cc(-c4ccc(NC(=O)c5ccc(Cl)cc5)cc4)ccc3n1Cc1ccc([N+](=O)[O-])cc1)CC2", "1 (yes)"],
  ["COc1cccc(C(=O)Nc2ccc(-c3ccc4[nH]c(C(=O)N5CCc6cc(OC)c(OC)cc6C5)cc4c3)cc2)c1", "1 (yes)"],
  ["COc1cc2c(cc1OC)CN(CCc1ccc(NC(=O)c3cc(OC)c(OC)cc3NC(=O)c3cnc4ccccc4c3)cc1)CC2", "1 (yes)"],
  ["COc1cc2c(cc1OC)CN(C(=O)c1cc3cc(-c4ccc(NC(=O)c5ccc(Cl)cc5)cc4)ccc3n1Cc1ccc(C(F)(F)F)cc1)CC2", "1 (yes)"],
  ["COc1cc2c(cc1OC)CN(C(=O)c1cc3cc(-c4ccc(NC(=O)c5ccc(Cl)cc5)cc4)ccc3n1Cc1ccccc1C(F)(F)F)CC2", "1 (yes)"],
  ["COc1cccc(Cn2c(C(=O)N3CCc4cc(OC)c(OC)cc4C3)cc3cc(-c4ccc(NC(=O)c5ccc(Cl)cc5)cc4)ccc32)c1", "0 (no)"],
  ["COc1cc2c(cc1OC)CN(C(=O)c1cc3cc(-c4ccc(NC(=O)c5ccc(Cl)cc5)cc4)ccc3n1Cc1cccc(F)c1)CC2", "0 (no)"],
  ["COc1ccc(C(=O)Nc2ccc(-c3ccc4[nH]c(C(=O)N5CCc6cc(OC)c(OC)cc6C5)cc4c3)cc2)cc1", "1 (yes)"],
  ["COc1cc2c(cc1OC)CN(C(=O)c1cc3cc(-c4ccc(NC(=O)c5cc(OC)c(OC)c(OC)c5)cc4)ccc3[nH]1)CC2", "1 (yes)"],
  ["COc1cc2c(cc1OC)CN(C(=O)c1cc3cc(-c4ccc(NC(=O)c5ccc(Cl)cc5)cc4)ccc3n1Cc1ccc(Br)cc1)CC2", "0 (no)"],
  ["COc1cc2c(cc1OC)CN(C(=O)c1cc3cc(-c4ccc(NC(=O)c5ccc(I)cc5)cc4)ccc3[nH]1)CC2", "1 (yes)"],
  ["COc1cc2c(cc1OC)CN(C(=O)c1cc3cc(-c4ccc(NC(=O)c5ccc(Cl)cc5)cc4)ccc3n1Cc1ccccc1Cl)CC2", "1 (yes)"],
  ["COc1cc2c(cc1OC)CN(C(=O)c1cc3cc(-c4ccc(NC(=O)c5ccc(Cl)cc5)cc4)ccc3n1Cc1cccc(C(F)(F)F)c1)CC2", "1 (yes)"],
  ["COc1ccc(CCN(C)CCCC(C#N)(c2ccc(OC)c(OC)c2)C(C)C)cc1OC (centres undefined)", "0 (no)"]
]}
